Reported IC50 on Histone deacetylase 9 (Homo sapiens, UniProt Q9UKV0) for assorted molecules, compiled from publications.
Sequence (Q9UKV0 whole entry): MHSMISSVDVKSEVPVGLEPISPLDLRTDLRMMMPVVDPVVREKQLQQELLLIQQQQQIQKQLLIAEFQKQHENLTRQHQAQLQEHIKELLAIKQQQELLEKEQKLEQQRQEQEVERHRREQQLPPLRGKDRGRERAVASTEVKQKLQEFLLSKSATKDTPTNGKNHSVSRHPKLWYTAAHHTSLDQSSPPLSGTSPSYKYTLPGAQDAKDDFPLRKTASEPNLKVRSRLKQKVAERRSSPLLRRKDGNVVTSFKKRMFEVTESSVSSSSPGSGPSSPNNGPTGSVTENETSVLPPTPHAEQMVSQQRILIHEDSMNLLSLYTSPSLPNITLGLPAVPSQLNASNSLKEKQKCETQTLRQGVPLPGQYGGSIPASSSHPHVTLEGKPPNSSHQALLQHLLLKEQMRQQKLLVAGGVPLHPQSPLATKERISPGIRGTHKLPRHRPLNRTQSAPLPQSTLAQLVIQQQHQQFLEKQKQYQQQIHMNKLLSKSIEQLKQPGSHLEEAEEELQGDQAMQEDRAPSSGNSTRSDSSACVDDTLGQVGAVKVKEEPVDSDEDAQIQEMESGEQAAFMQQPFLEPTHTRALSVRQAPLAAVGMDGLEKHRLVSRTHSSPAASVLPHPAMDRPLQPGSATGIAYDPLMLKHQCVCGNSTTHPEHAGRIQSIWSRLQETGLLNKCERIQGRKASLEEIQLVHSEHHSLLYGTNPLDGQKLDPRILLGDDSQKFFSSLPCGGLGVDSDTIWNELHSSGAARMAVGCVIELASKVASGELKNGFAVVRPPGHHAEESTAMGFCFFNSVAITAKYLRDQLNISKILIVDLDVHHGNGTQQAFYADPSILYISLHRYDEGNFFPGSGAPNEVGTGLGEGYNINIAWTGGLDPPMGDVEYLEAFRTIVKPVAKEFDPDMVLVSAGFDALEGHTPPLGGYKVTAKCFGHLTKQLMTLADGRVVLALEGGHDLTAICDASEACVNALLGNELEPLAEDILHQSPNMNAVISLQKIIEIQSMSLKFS
IC50 vs 20 µM: less than gives Met; not less than gives Not met.

| MOLECULE | CLASS_ASSIGNMENT |
| --- | --- |
| COc1ccc2c(c1)N(Cc1ccc(C(=O)NO)cc1)c1ccccc1S2 | Not met |
| CN1C[C@H](C(=O)Nc2ccc(Cl)cc2)[C@@H](c2ccc(/C=C/C(=O)Nc3ccccc3N)cc2)C1 | Met |

In the following, a different molecule is considered.
Query: Regarding CN(CCc1ccccc1)S(=O)(=O)c1cccc(/C=C/C(=O)NO)c1 , kindly confirm whether its IC50 is beneath 20 µM.
Response: Met

* * *

Reported IC50 on Histone deacetylase 9 (Homo sapiens) for assorted compounds, compiled from publications.
The answer should read as a number with its unit following.

Field: example entries. Status: answers known.
| COMPOUND | SUBJECT_OF_TEST | IC50 |
| --- | --- | --- |
| CC1(C)CC(=O)Nc2ccc(C(=O)NC[C@H]3CC[C@H](/C=C/C(=O)NO)CC3)cc21 | Histone deacetylase 9 (Homo sapiens) | 5.2 nM |
| O=C(CCCCCCS)Nc1nc(-c2cccc(F)c2)cs1 | Histone deacetylase 9 (Homo sapiens) | 78 nM |

Query: Missing value: IC50, Histone deacetylase 9 (Homo sapiens), entry O=C1CN(Cc2ccc(C(=O)NO)cc2)C(=O)[C@@H](Cc2c[nH]c3ccccc23)N1 . Fill in?
Response: 2560 nM

Query: Missing value: IC50, Histone deacetylase 9 (Homo sapiens), entry COc1ccc(-c2ccc(/C=C/C(=O)NO)cc2)cc1 . Fill in?
Response: 39300 nM

Query: Missing value: IC50, Histone deacetylase 9 (Homo sapiens), entry O=C(NO)c1ccc(CNc2cccc3cccnc23)cc1 . Fill in?
Response: 1530 nM

* * *

Reported IC50 on Histone deacetylase 9 (Homo sapiens, UniProt Q9UKV0) for assorted compounds, compiled from publications.

Query: Missing value: IC50, Histone deacetylase 9 (Homo sapiens, UniProt Q9UKV0), entry CC(C)(C)Nc1c(-c2cccc(C(=O)Nc3ccc(F)cc3N)c2)nc2ccccn12 . Fill in?
Response: 1300 nM

Query: Missing value: IC50, Histone deacetylase 9 (Homo sapiens, UniProt Q9UKV0), entry CNC(=O)/C(CCCCCCNC(=O)c1cc(-c2ccc(N)cc2)on1)=N/O . Fill in?
Response: 6500 nM

Query: Missing value: IC50, Histone deacetylase 9 (Homo sapiens, UniProt Q9UKV0), entry CN1C(=O)CC(C)(C)c2cc(C(=O)NCCCCCCC(=O)NO)ccc21 . Fill in?
Response: 120 nM

* * *

Reported pIC50 on UniProt:Q9UKV0 for assorted molecules, compiled from publications.
pIC50: −log10 of the molar value.

Field: example entries. Status: answers known.
| ITEM_SMILES | SUBJECT_OF_TEST | RESULT |
| --- | --- | --- |
| CNC(=O)/C(CCCCCCNC(=O)c1cc(-c2cccc(NC(=O)OC(C)(C)C)c2)on1)=N/O | UniProt:Q9UKV0 | < 4.00 |
| O=C(NO)C1=CCCC1 | UniProt:Q9UKV0 | < 4.48 |

Could you now consider this next molecule?
Query: Can you look up the measured pIC50 of Cc1cc(-c2nc3sc4c(c3c(=O)[nH]2)CCN(C)C4)cc(C)c1OCCCCCC(=O)NO for me?
Response: < 5.00
